Kindly find below pIC50 information for Tyrosine-protein kinase HCK (Homo sapiens) taken from the literature.
pIC50: −log10 of the molar value.

smiles | pIC50
CN1CCN(c2ccc(-c3cnn4c(N)c(-c5ccc(NC(=O)Nc6ccccc6Cl)cc5)cnc34)cc2)CC1 | 6.67
Nc1ncnc2c1c(-c1ccc(Oc3ccccc3)cc1)cn2[C@H]1CC[C@H](N2CCC[C@@H]2C(=O)O)CC1 | 6.70
CN1CCN(c2ccc(-c3cnn4c(N)c(-c5ccc(NC(=O)CCC6CCCC6)cc5)cnc34)cc2)CC1 | 7.85
COc1cc(-c2csc3c(C(N)=O)cnc(N)c23)ccc1NC(=O)c1cc2ccccc2n1C | 5.85
